protocol: Octanol-water partition coefficient, log P of the compound by HPLC analysis
Format: physicochemical
measure name: logP

{"columns": ["structure as smiles", "logP"],
 "data": [
  ["CC1(C)CC[C@@H]2CC(=O)O[C@@H](CO)CC(=O)O[C@@H]3C[C@@H](CCCCc4cc(O)ccc4Br)O[C@@]1(C3)O2", 4],
  ["CC1(C)CC[C@@H]2CC(=O)O[C@@H](CO)CC(=O)O[C@@H]3C[C@@H](CCCCc4ccc(I)c(O)c4)O[C@@]1(C3)O2", 4.3],
  ["CC1(C)CC[C@@H]2CC(=O)O[C@@H](CO)CC(=O)O[C@@H]3C[C@@H](CCCCc4cc(O)c(Br)cc4Br)O[C@@]1(C3)O2", 5],
  ["CC(=O)Nc1ccc(CCCC[C@@H]2C[C@@H]3C[C@@]4(O[C@H](CCC4(C)C)CC(=O)O[C@@H](CO)CC(=O)O3)O2)cc1O", 2.7],
  ["CC1(C)CC[C@@H]2CC(=O)O[C@@H](CO)CC(=O)O[C@@H]3C[C@@H](CCCCc4ccccc4)O[C@@]1(C3)O2", 4.8]
]}

Lab book: logP of `CO[C@@H](CC[C@H](C)[C@H]1O[C@@]23C[C@H](OC(=O)C[C@H]([C@@H](C)O)OC(=O)C[C@](O)(O2)[C@H](C)CC3(C)C)[C@@H]1C)c1cc(O)ccc1Br` noted as 5.4

---

protocol: Growth inhibition of human HCC2998 cells after 48 hrs by sulforhodamine B assay
Format: functional
measurement conditions: HCC 2998, 48 h
measure name: log10 GI50 (log10 of the value in µM)
Remember, log10 of GI50, in µM.

{"columns": ["structure as smiles", "log10 GI50"],
 "data": [
  ["CC1(C)CC[C@@H]2CC(=O)O[C@@H](CO)CC(=O)O[C@@H]3C[C@@H](CCCCc4ccc(I)c(O)c4)O[C@@]1(C3)O2", 0.21],
  ["CC(=O)Nc1ccc(CCCC[C@@H]2C[C@@H]3C[C@@]4(O[C@H](CCC4(C)C)CC(=O)O[C@@H](CO)CC(=O)O3)O2)cc1O", 1.14],
  ["COc1cccc(CCCC[C@@H]2C[C@@H]3C[C@@]4(O[C@H](CCC4(C)C)CC(=O)O[C@@H](CO)CC(=O)O3)O2)c1", 0.90]
]}

Quick request: log10 GI50 for each listed item, please.
1. CC1(C)CC[C@@H]2CC(=O)O[C@@H](CO)CC(=O)O[C@@H]3C[C@@H](CCCCc4cc(O)c(Br)cc4Br)O[C@@]1(C3)O2
2. CC1(C)CC[C@@H]2CC(=O)O[C@@H](CO)CC(=O)O[C@@H]3C[C@@H](CCCCc4c(Br)cc(Br)c(O)c4Br)O[C@@]1(C3)O2
3. CC1(C)CC[C@@H]2CC(=O)O[C@@H](CO)CC(=O)O[C@@H]3C[C@@H](CCCCc4cc(O)ccc4I)O[C@@]1(C3)O2
4. CC1(C)CC[C@@H]2CC(=O)O[C@@H](CO)CC(=O)O[C@@H]3C[C@@H](CCCCc4cc(O)ccc4Br)O[C@@]1(C3)O2
5. CC(=O)Nc1ccc(O)cc1CCCC[C@@H]1C[C@@H]2C[C@@]3(O[C@H](CCC3(C)C)CC(=O)O[C@@H](CO)CC(=O)O2)O1

A)
[-0.05, 0.88, -0.05, -0.10, 1.86]
